I'd be grateful if you could share measured growth for these entries.
- System: NCI-H460 lung
- measurement description: NCI-60 one-dose screen, 48 h (100 = growth as untreated, 0 = no growth, -100 = all killed)
- condition notes: 10 µM unless noted
About 83,000 compounds went through this panel and 20% of them were active in at least one assay; those are over-represented in the sample as a whole.
Give bare numbers, in %.

>>> result("CC1CCc2c(sc3nc(SCC(=O)N/N=C/c4cccc(O)c4O)n(-c4ccccc4)c(=O)c23)C1 (stereo not drawn)")
88.4

Please supply growth for each of the following items, keeping them in order.
1. c1cncc(-c2cn3nc(-c4c[nH]c5ccccc45)sc3n2)c1
2. CS(=O)(=O)c1nccc(-c2c(-c3ccc(F)c(OCCc4ccc(F)cc4)c3)nc3sccn23)n1
3. CN1CCN(c2ccc3c(C(N)=O)c(NC(=O)c4ccc(C(C)(C)C)cc4)sc3c2)CC1
4. O=C(O)CNS(=O)(=O)c1ccc(Oc2ccc(S(=O)(=O)NCC(=O)O)cc2)cc1
5. CNC(=O)c1cc(Oc2ccc3nc(NC(=O)c4ccc(CN5CCCN(C)CC5)c(C(F)(F)F)c4)sc3c2)ccn1
6. COc1ccc(CCN2C(=O)CSC2=S)cc1OC
7. Cc1ccc(-c2nnc3sc(C4=Cc5ccccc5OC=C4)nn23)cc1
8. CCOC(=O)c1nn(-c2ccc(C)cc2)c(=O)c2c(N)c(C#N)c(-c3ccc(OC)cc3)cc12

Ans.
1. 25.4
2. -56
3. 53.8
4. 101
5. 5.57
6. 102
7. 101
8. 101

----------
I'd be grateful if you could share measured growth for these entries.
- Test system: RPMI-8226 leukemia
- measurement description: NCI-60 one-dose screen, 48 h (100 = growth as untreated, 0 = no growth, -100 = all killed)
- condition notes: 10 µM unless noted
Compounds without any hit were thinned out: in the full panel of roughly 83,000, 20% have a hit.
One number for each entry, in %.

Known growth results, listed for orientation:
>>> result("CC1(C)CC[C@]2(C(=O)N3CCCNCC3)CC[C@]3(C)C(=CC[C@@H]4[C@@]5(C)CCC(=O)C(C)(C)[C@@H]5CC[C@]43C)[C@H]2C1")
98.7
>>> result("IP(CCCCCCCCCCSc1n(Cc2ccc3ccccc3c2)c(-c2ccccc2)c(-c2ccccc2)[n+]1Cc1ccc2ccccc2c1)(c1ccccc1)(c1ccccc1)c1ccccc1")
-38
>>> result("O=C1c2c(c3c4cc(Br)ccc4[nH]c3c3ccc4ccccc4c23)C(=O)N1CCN1CCCCC1")
-36.5
>>> result("CN(C)c1ccc(/C=N/Nc2nc(N/N=C/c3ccc(N(C)C)cc3)nc(N3CCOCC3)n2)cc1")
35
>>> result("COc1cc(OC)c(S(N)(=O)=O)cc1C(=O)/C=C/c1ccccc1")
18.5

Go through the items and report each one's growth.
1. Nc1ccc(-c2nnc(SCc3ccc(O)c4ncccc34)n2-c2ccccc2)cc1
2. O=C(COc1ccc(/C=C2\SC(=O)NC2=O)cc1)Nc1ccc(C(=O)/C=C/c2cc3ccccc3nc2Cl)cc1
3. Clc1ccc(-c2nc3ccc(/C(=N\N=C\c4ccccc4)c4ccccc4)cc3[nH]2)cc1
4. N#C/C(=C\c1ccc(-c2ccc(F)cc2)o1)C(=O)Nc1ncc(Cc2ccc(Cl)cc2Cl)s1
5. CCOC(=O)/C(F)=C/C1CC1CCc1cccc(C(F)(F)F)c1 (centres undefined)
6. O=C(CN1C(=O)CSC1=O)Nc1ccc(C(=O)/C=C/c2cc3ccccc3nc2Cl)cc1
7. COc1cc2c3c(n(CCCN4CCCC4)c(=O)c2cc1OC)-c1cc2c(cc1C3=O)OCO2
8. O=C(COc1cccc2cccnc12)Nc1ccc(C(=O)/C=C/c2ccc(Cl)cc2)cc1

Ans.
11.6
-25.8
54.6
25.3
102
-13.2
-41.2
7.02

# molecule `COc1cc2c3c(n(CCCNCC4CC4)c(=O)c2cc1OC)-c1cc2c(cc1C3=O)OCO2` ; its growth = -42.8

----------
- System: SW-620 colon
- measurement description: NCI-60 one-dose screen, 48 h (100 = growth as untreated, 0 = no growth, -100 = all killed)
- condition notes: 10 µM unless noted
- Protocol: Growth inhibition of the SW-620 human tumor cell line is measured as a screen for anti-cancer activity. Cells are grown in 96 well plates and exposed to the test compound for 48 hours. Compounds are tested at a single concentration, which is 10^-5 M for most compounds. The reported endpoint is percent growth (GI% or GIPRCNT), where numbers from 0 - 100% represent growth inhibition, and numbers from -100% - 0 represent cell death. For example, a value of 40 represents 60% growth inhibition. […]
About 83,000 compounds went through this panel and 20% of them were active in at least one assay; those are over-represented in the sample as a whole.
Would you mind telling me the reported growth of each entry?
Give bare numbers, in %.

These solved cases illustrate the format of a correct answer.
>>> result("C#CCOc1ccc(C(Nc2ccc(Cl)cc2)c2nnnn2C2CCCCC2)cc1 (stereo unspecified)")
94.2
>>> result("COc1ccc(-c2nnc(SCc3ccc(O)c4ncccc34)o2)cc1")
17.7
>>> result("CCc1ccc(NC(=O)N[C@@H](Cc2cccc(F)c2)C(=O)N[C@@H]2C(=O)N3CCC[C@H]3C(=O)N3CCCC[C@H]3C(=O)N[C@@H](C)C(=O)N3C[C@H](C)C[C@H]3C(=O)O[C@H]2C)c(F)c1")
34.4
>>> result("C=C(C)[C@@H]1CC[C@]2(C(=O)NCCCN(CCC#N)CCC#N)CC[C@]3(C)[C@H](CC[C@@H]4[C@@]5(C)CCC(=O)C(C)(C)[C@@H]5CC[C@]43C)[C@@H]12")
100
>>> result("Cc1ccc(-n2cc(/C=C/C(=O)c3ccc(S(C)(=O)=O)cc3)c(-c3ccc(S(C)(=O)=O)cc3)n2)cc1")
64.9

Now for the molecule whose growth we want.
growth for SW-620 colon with input `Cc1cc(F)cc(NS(=O)(=O)c2ccc(-c3cnc(C4CC4)o3)cc2)c1` equals 24.7

----------
- Tested on: HOP-62 NSCLC
- measurement description: NCI-60 one-dose screen, 48 h (100 = growth as untreated, 0 = no growth, -100 = all killed)
- condition notes: 10 µM unless noted
About 83,000 compounds went through this panel and 20% of them were active in at least one assay; those are over-represented in the sample as a whole.
quantity: growth (%)
Answers are plain numbers, in %.

>>> result("Brc1cccc(/C=N/Nc2nc(N/N=C/c3cccc(Br)c3)nc(N3CCOCC3)n2)c1")
52.3

Go through the list and state growth for each entry.
1. CC[C@H](C)[C@H]1NC(=O)[C@@H]([C@H](O)C(C)C)NC(=O)[C@@H](C)N(C)C(=O)[C@H](C)N(C)C(=O)[C@H](CC(C)C)NC(=O)[C@H](CC(C)C)N(C)C(=O)[C@H](C)N(C)C1=O
2. Cn1nc(Nc2ccccc2)c(C(=O)NN)c1N
3. COc1cc(-c2noc(C[C@@H](NC(=O)OCc3ccccc3)C(C)C)n2)cc(OC)c1OC
4. CN1CCN(c2ccc(NC(=O)Nc3ccc4c(ccn4-c4cccc(C(N)=O)n4)c3)cc2C(F)(F)F)CC1

Ans.
1. -13.3
2. 99.8
3. 94.4
4. 63.2

----------
- System: UACC-62 melanoma
- measurement description: NCI-60 one-dose screen, 48 h (100 = growth as untreated, 0 = no growth, -100 = all killed)
- condition notes: 10 µM unless noted
About 83,000 compounds went through this panel and 20% of them were active in at least one assay; those are over-represented in the sample as a whole.
quantity: growth (%)
Numbers only, in %.

>>> result("Cc1occc1-c1nc2s/c(=C\\c3cn(-c4ccccc4)nc3-c3ccccc3)c(=O)n2n1")
92.1
>>> result("CCc1ccc(NC(=O)N[C@@H](Cc2cc(F)cc(F)c2)C(=O)N[C@@H]2C(=O)N3CCC[C@H]3C(=O)N3CCO[C@H](C)[C@H]3C(=O)N[C@@H](CO)C(=O)N3C[C@H](C)C[C@H]3C(=O)O[C@H]2C)c(F)c1")
26.3
>>> result("C#C[C@]1(O)CC[C@H]2[C@@H]3CC=C4c5sc(Nc6cc(OC)ccc6OC)nc5CC[C@]4(C)[C@H]3CC[C@@]21C")
-14
>>> result("Cc1ccc(/C=C/CC(=O)Nc2ccc(C(=O)Nc3ccc(F)cc3N)nc2)cn1")
21.8
>>> result("CCOC(=O)C1=C(C)Nc2nnc(Nc3ccccc3)n2C1c1ccccc1 (stereo unspecified)")
75.3

Could you tell me growth for each of these molecules? They are listed below.
1. NS(=O)(=O)c1ccc(Nc2nc(N/N=C/c3ccc(C(F)(F)F)cc3)nc(Nc3ccccc3)n2)cc1
2. Oc1ccc(CSc2nnc(-c3ccc(Cl)cc3)o2)c2cccnc12

Ans.
14.9
5.12

Parameters: items (list). Returns: growth for each item.
1. CN(C)c1ncc(/C=C2\SC(=S)N(Cc3ccccc3Cl)C2=O)s1
2. O=C(O)c1ccc(-n2cc(CNc3ccc(Cl)cc3)c(-c3ccc(F)cc3)n2)cc1
3. C#C[C@]1(O)CC[C@H]2[C@@H]3CC=C4c5sc(Nc6ccncc6)nc5CC[C@]4(C)[C@H]3CC[C@@]21C
4. Brc1cccc(/C=N/Nc2nc(N/N=C/c3cccc(Br)c3)nc(N3CCOCC3)n2)c1

Ans.
1: 94.6; 2: 77.4; 3: -22.8; 4: 56

Measured values drawn from PubChem BioAssay (NCI) for this set.
